Tested on: MDA-MB-231
TEST NAME: Antiproliferative activity against human MDA-MB-231 cells assessed as cell growth at 10 uM incubated for 48 hrs by sulforhodamine B assay relative to control
Format: functional
MEASUREMENT CONTEXT: read-out: Activity
Label TRUE when growth at 10 µM is strictly below 80%; at or above that, label FALSE.

Examples with answers:
[[record]]
molecule = "CCn1c(C)c(C(C)=O)c2c(-c3ccccc3)nc3ccccc3c21"
discrete_label = "FALSE"

[[record]]
molecule = "CC(=O)c1c(C)n(-c2ccccc2)c2c1c(-c1ccc(C)o1)nc1ccccc12"
discrete_label = "TRUE"

[[record]]
molecule = "CC(=O)c1c(C)[nH]c2c1c(-c1cc(Cl)cc(Cl)c1O)nc1ccccc12"
discrete_label = "TRUE"


Challenge: # strict comparison: is reported growth at 10 µM < 80%? input = CCOC(=O)c1c(C)n(-c2ccccc2)c2c1c(-c1ccccc1)nc1ccccc12
Response given: TRUE

Challenge: # strict comparison: is reported growth at 10 µM < 80%? input = CC(=O)c1c(C)n(-c2ccccc2)c2c1c(-c1ccccc1)nc1ccccc12
Response given: TRUE

Challenge: # strict comparison: is reported growth at 10 µM < 80%? input = CC(=O)c1c(C)[nH]c2c1c(-c1cc3c(cc1Br)OCO3)nc1ccccc12
Response given: FALSE

Challenge: # strict comparison: is reported growth at 10 µM < 80%? input = CC(=O)c1c(C)[nH]c2c1c(-c1ccccc1)nc1ccccc12
Response given: FALSE

Challenge: # strict comparison: is reported growth at 10 µM < 80%? input = CC(=O)c1c(C)n(C)c2c1c(-c1ccccc1)nc1ccccc12
Response given: FALSE

Challenge: # strict comparison: is reported growth at 10 µM < 80%? input = CC(=O)c1c(C)n(CCCCl)c2c1c(-c1ccc3c(c1)OCO3)nc1ccccc12
Response given: FALSE
